Where do the numbers come from? From patent US20220259593A1.

System: K562 CRISPRi cells
Experiment: Constant region variant library pooled growth screen, K562
Type: cell-based, human
Conditions: sgRNA constant region variants; activity relative to the un-modified constant region cr995
quantity kind: Mean relative activity
One number for each entry.

Example results:
molecule	Mean relative activity
cr299 (nucleic acid, listed as DNA, chemistry not fully specified) guide: GTTTAAGAGCTAAGCTGGAAACAGCATAGCAAGTTTAAATAAGGCTAGTCCGTTATCAACTTGGGAAAGTGGCACCGAGTCGGTGCT	0.9718
cr614 (nucleic acid, listed as DNA, chemistry not fully specified) guide: GTTTAAGAGCTAAGCTGAAAACAGCATAGCAAGTTTAAATAAGGCTAGTCCGTTATCAACTTGAAAAAGTGGCACCGAGTCGGTGCT	0.927
cr021 (nucleic acid, listed as DNA, chemistry not fully specified) guide: GTTTAAGCGCTAAGCTGGAAACAGCATAGCAAGTTTAAATAAGGCTAGTCCGTTATCAACTTGAAAAAGTGGCACCGAGTCGGTGCT	0.9786
cr800 (nucleic acid, listed as DNA, chemistry not fully specified) guide: GTTTAAGAGCTAAGCTGGAAACAGCATAGCAAGTTTAAATAAGGTTAATCCGTTATCATCTTGAAAAAGAGACACCGAGTCGGTGTT	0.9728
cr529 (nucleic acid, listed as DNA, chemistry not fully specified) guide: GTTTAAGAGCTAAGCTGGAAACAGCATAGCAAGTTTAAATAAGGCTAGTCCGTTATCAACTTGAAAAAGTGGCACTGAGTCAGTGCT	0.9488

# map each molecule to its Mean relative activity
1. cr397 (nucleic acid, listed as DNA, chemistry not fully specified) guide: GTTTAAGAGCTAAGCTGGAAACAGCATAGCAAGTTTAAATAAGGCTAGTCCGTTATCAAATTGAAAAATTGGCACCGAGTCGGTGCT
2. cr747 (nucleic acid, listed as DNA, chemistry not fully specified) guide: GTTTAAGAGCTAAGCTGGAAACAGCATAGCAAGTTTAAATAAGGCTAGTCCGTTATCACCTTGAGAAAGGGGCACCGAGTCGGTGCT

1: 0.9508; 2: 0.9812
